Test system: all Candida strains
assay text: MIC testing (CLSI M27-A3), summary
Assay type: cell-based
measurement setup: inhibits 50% of strains
quantity: MIC50

compound="C[C@@H]1[C@H](O)[C@@H](C)/C=C/C=C/C=C/C=C/C=C/C=C/C=C/[C@H](O[C@@H]2O[C@H](C)[C@@H](O)[C@H](N)[C@@H]2O)C[C@@H]2O[C@](O)(C[C@@H](O)[C@H](O)CC[C@@H](O)C[C@@H](O)C[C@@H](O)CC(=O)O[C@H]1C)C[C@H](O)[C@H]2C [Compound 1A]" system_under_test="all Candida strains" result="1 µg/mL"
compound="CC[C@H](C)C[C@H](C)CCCCCCCCC(=O)N[C@H]1C[C@@H](O)[C@@H](NCCN)NC(=O)[C@@H]2[C@@H](O)CCN2C(=O)[C@H]([C@H](O)CCN)NC(=O)[C@H]([C@H](O)[C@@H](O)c2ccc(O)cc2)NC(=O)[C@@H]2C[C@@H](O)CN2C(=O)[C@H]([C@@H](C)O)NC1=O [Caspofungin, caspofungin]" system_under_test="all Candida strains" result="0.5 µg/mL"
compound="OC(Cn1cncn1)(Cn1cncn1)c1ccc(F)cc1F [Fluconazole, fluconazole]" system_under_test="all Candida strains" result="0.5 µg/mL"
compound="C[C@@H]1[C@H](O)[C@@H](C)/C=C/C=C/C=C/C=C/C=C/C=C/C=C/[C@H](O[C@@H]2O[C@H](C)[C@@H](O)[C@H](N)[C@@H]2O)C[C@@H]2O[C@](O)(C[C@@H](O)C[C@@H](O)[C@H](O)CC[C@@H](O)C[C@@H](O)CC(=O)O[C@H]1C)C[C@H](O)[C@H]2C(=O)O [Amphotericin B]" system_under_test="all Candida strains" result="0.5 µg/mL"
compound="C[C@@H](c1ncncc1F)[C@](O)(Cn1cncn1)c1ccc(F)cc1F [Voriconazole, voriconazole]" system_under_test="all Candida strains" result="0.06 µg/mL"

----------
Measured MIC50 accompanies every entry in the list below.
System: Fusarium strains
assay text: MIC testing (CLSI M38-A2), Table 17
Assay type: cell-based, Fusarium spp.
measurement setup: Fusarium strains (Table 17); inhibits 50% of strains
quantity: MIC50 (µg/mL)

smiles_string=C[C@@H](c1ncncc1F)[C@](O)(Cn1cncn1)c1ccc(F)cc1F unit_string=µg/mL comparison_sign== result_number=16
smiles_string=OC(Cn1cncn1)(Cn1cncn1)c1ccc(F)cc1F unit_string=µg/mL comparison_sign=> result_number=64
smiles_string=C[C@@H]1[C@H](O)[C@@H](C)/C=C/C=C/C=C/C=C/C=C/C=C/C=C/[C@H](O[C@@H]2O[C@H](C)[C@@H](O)[C@H](N)[C@@H]2O)C[C@@H]2O[C@](O)(C[C@@H](O)C[C@@H](O)[C@H](O)CC[C@@H](O)C[C@@H](O)CC(=O)O[C@H]1C)C[C@H](O)[C@H]2C(=O)O unit_string=µg/mL comparison_sign== result_number=1
smiles_string=CC[C@H](C)C[C@H](C)CCCCCCCCC(=O)N[C@H]1C[C@@H](O)[C@@H](NCCN)NC(=O)[C@@H]2[C@@H](O)CCN2C(=O)[C@H]([C@H](O)CCN)NC(=O)[C@H]([C@H](O)[C@@H](O)c2ccc(O)cc2)NC(=O)[C@@H]2C[C@@H](O)CN2C(=O)[C@H]([C@@H](C)O)NC1=O unit_string=µg/mL comparison_sign== result_number=32
smiles_string=C[C@@H]1[C@H](O)[C@@H](C)/C=C/C=C/C=C/C=C/C=C/C=C/C=C/[C@H](O[C@@H]2O[C@H](C)[C@@H](O)[C@H](N)[C@@H]2O)C[C@@H]2O[C@](O)(C[C@@H](O)[C@H](O)CC[C@@H](O)C[C@@H](O)C[C@@H](O)CC(=O)O[C@H]1C)C[C@H](O)[C@H]2C unit_string=µg/mL comparison_sign== result_number=2

----------
Measured MIC90 accompanies every entry in the list below.
Test system: individual Aspergillus spp. (Table 14, species not named)
assay text: MIC testing (CLSI M38-A2), Table 14
Type: cell-based
measurement setup: Aspergillus sp. of Table 14; inhibits 90% of strains; caspofungin read as MEC
quantity: MIC90 (µg/mL)

smiles_string=CC[C@H](C)C[C@H](C)CCCCCCCCC(=O)N[C@H]1C[C@@H](O)[C@@H](NCCN)NC(=O)[C@@H]2[C@@H](O)CCN2C(=O)[C@H]([C@H](O)CCN)NC(=O)[C@H]([C@H](O)[C@@H](O)c2ccc(O)cc2)NC(=O)[C@@H]2C[C@@H](O)CN2C(=O)[C@H]([C@@H](C)O)NC1=O comparison_sign== result_number=0.25
smiles_string=C[C@@H]1[C@H](O)[C@@H](C)/C=C/C=C/C=C/C=C/C=C/C=C/C=C/[C@H](O[C@@H]2O[C@H](C)[C@@H](O)[C@H](N)[C@@H]2O)C[C@@H]2O[C@](O)(C[C@@H](O)C[C@@H](O)[C@H](O)CC[C@@H](O)C[C@@H](O)CC(=O)O[C@H]1C)C[C@H](O)[C@H]2C(=O)O comparison_sign== result_number=1
smiles_string=C[C@@H]1[C@H](O)[C@@H](C)/C=C/C=C/C=C/C=C/C=C/C=C/C=C/[C@H](O[C@@H]2O[C@H](C)[C@@H](O)[C@H](N)[C@@H]2O)C[C@@H]2O[C@](O)(C[C@@H](O)[C@H](O)CC[C@@H](O)C[C@@H](O)C[C@@H](O)CC(=O)O[C@H]1C)C[C@H](O)[C@H]2C comparison_sign== result_number=2
smiles_string=C[C@@H](c1ncncc1F)[C@](O)(Cn1cncn1)c1ccc(F)cc1F comparison_sign== result_number=4
smiles_string=OC(Cn1cncn1)(Cn1cncn1)c1ccc(F)cc1F comparison_sign=> result_number=64

----------
Measured MIC90 accompanies every entry in the list below.
Test system: C. parapsilosis
assay text: MIC testing (CLSI M27-A3)
Type: cell-based
measurement setup: C. parapsilosis; inhibits 90% of strains
quantity: MIC90 (µg/mL)

compound="C[C@@H]1[C@H](O)[C@@H](C)/C=C/C=C/C=C/C=C/C=C/C=C/C=C/[C@H](O[C@@H]2O[C@H](C)[C@@H](O)[C@H](N)[C@@H]2O)C[C@@H]2O[C@](O)(C[C@@H](O)C[C@@H](O)[C@H](O)CC[C@@H](O)C[C@@H](O)CC(=O)O[C@H]1C)C[C@H](O)[C@H]2C(=O)O [Amphotericin B]" result_number=0.5
compound="C[C@@H](c1ncncc1F)[C@](O)(Cn1cncn1)c1ccc(F)cc1F [Voriconazole, voriconazole]" result_number=0.06
compound="OC(Cn1cncn1)(Cn1cncn1)c1ccc(F)cc1F [Fluconazole, fluconazole]" result_number=0.5
compound="C[C@@H]1[C@H](O)[C@@H](C)/C=C/C=C/C=C/C=C/C=C/C=C/C=C/[C@H](O[C@@H]2O[C@H](C)[C@@H](O)[C@H](N)[C@@H]2O)C[C@@H]2O[C@](O)(C[C@@H](O)[C@H](O)CC[C@@H](O)C[C@@H](O)C[C@@H](O)CC(=O)O[C@H]1C)C[C@H](O)[C@H]2C [Compound 1A]" result_number=2
compound="CC[C@H](C)C[C@H](C)CCCCCCCCC(=O)N[C@H]1C[C@@H](O)[C@@H](NCCN)NC(=O)[C@@H]2[C@@H](O)CCN2C(=O)[C@H]([C@H](O)CCN)NC(=O)[C@H]([C@H](O)[C@@H](O)c2ccc(O)cc2)NC(=O)[C@@H]2C[C@@H](O)CN2C(=O)[C@H]([C@@H](C)O)NC1=O [Caspofungin, caspofungin]" result_number=2

----------
System: C. tropicalis
assay text: MFC determination
Assay type: cell-based
measurement setup: C. tropicalis; kills 90% of strains
quantity: MFC90

smiles_string=C[C@@H](c1ncncc1F)[C@](O)(Cn1cncn1)c1ccc(F)cc1F result="> 32 µg/mL"
smiles_string=OC(Cn1cncn1)(Cn1cncn1)c1ccc(F)cc1F result="> 64 µg/mL"
smiles_string=CC[C@H](C)C[C@H](C)CCCCCCCCC(=O)N[C@H]1C[C@@H](O)[C@@H](NCCN)NC(=O)[C@@H]2[C@@H](O)CCN2C(=O)[C@H]([C@H](O)CCN)NC(=O)[C@H]([C@H](O)[C@@H](O)c2ccc(O)cc2)NC(=O)[C@@H]2C[C@@H](O)CN2C(=O)[C@H]([C@@H](C)O)NC1=O result="> 32 µg/mL"

----------
Tested on: C. parapsilosis
assay text: MFC determination
Type: cell-based
measurement setup: C. parapsilosis; kills 50% of strains
Measured MFC50 accompanies every entry in the list below.
quantity: MFC50

molecule="CC[C@H](C)C[C@H](C)CCCCCCCCC(=O)N[C@H]1C[C@@H](O)[C@@H](NCCN)NC(=O)[C@@H]2[C@@H](O)CCN2C(=O)[C@H]([C@H](O)CCN)NC(=O)[C@H]([C@H](O)[C@@H](O)c2ccc(O)cc2)NC(=O)[C@@H]2C[C@@H](O)CN2C(=O)[C@H]([C@@H](C)O)NC1=O [Caspofungin, caspofungin]" quantity=MFC50 result="> 32 µg/mL"
molecule="OC(Cn1cncn1)(Cn1cncn1)c1ccc(F)cc1F [Fluconazole, fluconazole]" quantity=MFC50 result="> 64 µg/mL"
molecule="C[C@@H](c1ncncc1F)[C@](O)(Cn1cncn1)c1ccc(F)cc1F [Voriconazole, voriconazole]" quantity=MFC50 result="> 32 µg/mL"

Attribution: patent US20230138395A1
